Reported TGI values for the following compounds.
system: EKVX NSCLC; assay: NCI tumour cell line growth inhibition, 48 h
Peptide text beside a SMILES is read from it. * marks the point of attachment. Cbz = O=C(OCc1ccccc1)*
quantity: TGI

[[record]]
compound = "CC(C)(C)[Si](C)(C)O/N=C\\c1cccc(O[Si](C)(C)C(C)(C)C)c1"
assay_target = "EKVX NSCLC"
result = "36.9 µM"

[[record]]
compound = "Nc1nc(Cl)cc(NCC2(CO)CC=CC2)n1"
assay_target = "EKVX NSCLC"
result = "> 100 µM"

[[record]]
compound = "CNC(=O)OCC1=C(COC(=O)NC)CN(c2ccc(OC)cc2)C1"
assay_target = "EKVX NSCLC"
result = "> 100 µM"

[[record]]
compound = "O=C1/C(=C\\c2cccc(Oc3ccccc3)c2)SC(c2ccccc2)N1Cc1ccccc1 (centres undefined)"
assay_target = "EKVX NSCLC"
result = "> 100 µM"

[[record]]
compound = "COc1ccc2cn3c4ccc(O)cc4[nH]c(=O)c3c2c1"
assay_target = "EKVX NSCLC"
result = "20.7 µM"

[[record]]
compound = "CC(C)C(=O)CC(c1ccc(Br)cc1)N1N=C(C(C)C)CC1c1ccc(Br)cc1 (centres undefined)"
assay_target = "EKVX NSCLC"
result = "> 100 µM"

[[record]]
compound = "CC(NC(=O)c1ccc(OP(=O)(OCc2ccc([N+](=O)[O-])o2)N(C)CCCCCl)cc1)c1ccc(OCC2CCCCC2)c(C(N)=O)c1 (centres undefined)"
assay_target = "EKVX NSCLC"
result = "> 100 µM"

[[record]]
compound = "CCOC(=O)CCC(NC(=O)CNC(=O)CNC(=O)C(CCC(=O)OCC)NC(=O)C(CCC(=O)OCC)NC(=O)C(CCC(=O)OCC)NC(=O)OCc1ccccc1)C(=O)NC(CCC(=O)OCC)C(=O)NC(CCC(=O)OCC)C(=O)OCC (centres undefined) (Cbz-E(OEt)E(OEt)E(OEt)GGE(OEt)E(OEt)E(OEt)-OEt; configuration not given here)"
assay_target = "EKVX NSCLC"
result = "> 75 µM"

[[record]]
compound = "Clc1cccc(/C=c2\\nc(-c3ccccc3)n3c2nc2ccccc23)c1"
assay_target = "EKVX NSCLC"
result = "> 100 µM"

[[record]]
compound = "CCC1=NC(N/N=C/c2ccco2)=N/C1=C\\c1ccco1"
assay_target = "EKVX NSCLC"
result = "> 100 µM"

[[record]]
compound = "COc1ccc(/C=N/C2=NNC(C)(c3ccccc3O)N2C(Cc2c[nH]c3ccccc23)C(=O)O)cc1 (centres undefined)"
assay_target = "EKVX NSCLC"
result = "10.8 µM"

[[record]]
compound = "O=C(c1ccccc1)N1CCC(Nc2cccnc2)O1 (centres undefined)"
assay_target = "EKVX NSCLC"
result = "> 100 µM"

[[record]]
compound = "CCOC(=O)CCCOc1cc(-c2ccccc2F)nc2cc3c(cc12)OCO3"
assay_target = "EKVX NSCLC"
result = "> 100 µM"

[[record]]
compound = "Cc1[nH]c2[nH]c(=S)nc(NC(N)=S)c2c1Cc1ccccc1"
assay_target = "EKVX NSCLC"
result = "> 100 µM"

[[record]]
compound = "C#C[C@]1(O)[C@@H](CO)O[C@@H](n2ccc(=O)[nH]c2=O)[C@@H]1O"
assay_target = "EKVX NSCLC"
result = "> 100 µM"

[[record]]
compound = "N#CC(C#N)=C(N)/C(C#N)=C/c1ccc(O)c(O)c1"
assay_target = "EKVX NSCLC"
result = "> 100 µM"

[[record]]
compound = "CCOC(=O)CC1C(CNC(=O)NC)OC(n2cnc3c(NC(=O)Nc4ccccc4)ncnc32)C1O[Si](C)(C)C(C)(C)C (centres undefined)"
assay_target = "EKVX NSCLC"
result = "> 100 µM"

[[record]]
compound = "Cc1c(-c2cc(-c3ccccc3)n[nH]c2=O)c2ccccc2n1C"
assay_target = "EKVX NSCLC"
result = "> 100 µM"

[[record]]
compound = "COc1cc2cc[n+](C)c(Cc3ccc(Oc4cc(Cc5c6cc(OC)c(OC)cc6cc[n+]5C)ccc4OC)cc3)c2cc1OC"
assay_target = "EKVX NSCLC"
result = "> 100 µM"

